The reported measurements were obtained from PubChem BioAssay (NCI).

tested on: SW-620 colon; test: NCI-60 one-dose screen, 48 h (100 = growth as untreated, 0 = no growth, -100 = all killed); settings: 10 µM
Compounds without any hit were thinned out: in the full panel of roughly 83,000, 20% have a hit.
Property: growth (%)

>>> result("Nc1nc(-c2ccccc2)cc(-c2cc3ccccc3nc2Cl)n1")
62.7
>>> result("CO[C@H]1CSS[C@@H]1Cn1nc(-c2ccc(Oc3ccccc3)cc2)c2c(N)ncnc21")
66.4
>>> result("Cc1ccc(CNC(=O)Cc2ccc3c(c2)CN(C2CCC(=O)NC2=O)C3=O)cc1 (centres undefined)")
4.15
>>> result("Cc1ccc(-c2nc(Nc3ccc(C)c(S(N)(=O)=O)c3)c3ccccc3n2)cc1")
37.2
>>> result("COc1ccccc1[C@H]1C(C(=O)c2ccc(Cl)cc2)C2(N[C@@H]1c1ccccc1)C(=O)Nc1ccc(Cl)cc12 (some centres undefined)")
6.3
>>> result("O=c1oc2ccc(-c3ccc(F)cc3F)cc2c(=O)n1-c1ccc(F)c(Cl)c1")
3.17
>>> result("O=c1nc(-c2ccccc2)cc(-c2cc3ccccc3nc2Cl)[nH]1")
-63.6
>>> result("CN1C(=O)N(C)C2SC(N/N=C/c3cccs3)=NC21 (centres undefined)")
15.4
>>> result("COc1ccc(C=CC(=O)c2ccc(-n3c(C)nc4c(cnn4-c4ccccc4)c3=O)cc2)cc1")
75.1
>>> result("C#CCNC(=O)CCC(=O)OC[C@]12CC[C@@H](C(=C)C)[C@@H]1C1CC[C@@H]3[C@@]4(C)CCCNC(C)(C)[C@@H]4CC[C@@]3(C)[C@]1(C)CC2 (some centres undefined)")
-92.3
>>> result("COc1ccccc1[C@H]1C(C(=O)c2ccc(Cl)cc2)C2(N[C@@H]1c1ccccc1)C(=O)Nc1ccccc12 (some centres undefined)")
5.84
>>> result("CCCn1c(=O)c2[nH]c(-c3ccc(OCc4nc5ccc(C#N)cc5[nH]4)cc3)nc2n(CCC)c1=O")
80.5
>>> result("O=C(c1ccccc1)n1ccc(-c2cc3cc(Br)ccc3oc2=O)n1")
45.8
>>> result("O=c1c2ccccc2nc(COc2ccccc2)n1/N=C/c1ccc(N2CCCC2)cc1")
109
>>> result("CC1(C)CC[C@]23CC[C@]4(C)[C@H](CC[C@@H]5[C@@]6(C)CC[C@H](N)C(C)(C)[C@@H]6CC[C@]54C)[C@H]2[C@H]1OC3=O")
-73.7
>>> result("O=C(NO)c1ccc(CNC(=O)[C@H]2Cc3c([nH]c4ccccc34)[C@H](c3ccc(Cl)cc3)N2)cc1")
-51.6
>>> result("Cc1ccc(C(=O)CSc2nnc(-c3c[nH]c4ccccc34)n2-c2ccccc2)cc1")
19
>>> result("CCOC(=O)c1c(CSc2ccccc2)n(C)c2cc(CN(C)C)c(O)c(CN(C)C)c12")
23.1
>>> result("O=C(CS(=O)(=O)c1oc(-c2ccc(Cl)cc2)nc1S(=O)(=O)c1ccccc1)N1CCCC1")
-70.1
>>> result("O=C(Nc1nc2ccccc2s1)c1ccc(Br)cc1")
95
>>> result("CC(=O)Nc1ccc(-n2cnc3cc(-c4ccc(O)cc4)ccc32)cc1C")
44.2
>>> result("O=C(CNc1nc(-c2ccccc2)cs1)Nc1ccc([N+](=O)[O-])cc1")
7.63
>>> result("N#Cc1ccc(-c2nn(-c3ccc(C(=O)O)cc3)cc2CNc2cc(Cl)cc(Cl)c2)cc1")
49.2
>>> result("COc1ccc(/C=C/C(=O)c2ccc(S(=O)(=O)NCCNc3nc(Nc4ccc(F)cc4)nc(N(C)C)n3)cc2)cc1")
26.4
>>> result("OCCCNc1oc(-c2ccccc2)nc1[P+](c1ccccc1)(c1ccccc1)c1ccccc1")
11.5
>>> result("COc1ccc2nc(Cl)c(-c3cc(-c4ccccc4)nc(=O)[nH]3)cc2c1")
11.1
>>> result("COc1cccc(C(N)=Nc2ccc(OCCCCCCn3cncn3)cc2)c1")
38.1
>>> result("O=C(/C=C/Nc1ccc(F)cc1F)c1ccc2c(c1)Nc1ccccc1S2")
55.1
>>> result("COc1ccc(NC(=O)Cn2c(/C=C/c3ccc(N(C)C)cc3)nc3ccccc3c2=O)cc1")
48
